Molecular target: Cytochrome P450 2C19 (Homo sapiens) (UniProt P33261)
Sequence (P33261 whole entry, looked up): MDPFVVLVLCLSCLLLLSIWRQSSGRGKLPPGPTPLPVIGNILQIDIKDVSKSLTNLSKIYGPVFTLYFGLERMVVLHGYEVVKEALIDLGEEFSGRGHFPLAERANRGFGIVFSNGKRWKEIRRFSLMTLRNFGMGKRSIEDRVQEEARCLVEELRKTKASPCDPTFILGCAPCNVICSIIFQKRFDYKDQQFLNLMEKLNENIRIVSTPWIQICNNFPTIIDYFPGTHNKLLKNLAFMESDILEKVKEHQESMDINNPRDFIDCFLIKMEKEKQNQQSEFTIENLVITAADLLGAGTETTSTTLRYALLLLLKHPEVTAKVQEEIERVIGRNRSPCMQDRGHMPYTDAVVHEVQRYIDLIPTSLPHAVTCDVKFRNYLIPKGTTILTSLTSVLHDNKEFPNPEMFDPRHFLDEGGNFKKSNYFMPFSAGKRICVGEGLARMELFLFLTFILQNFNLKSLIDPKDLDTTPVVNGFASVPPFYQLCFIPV
Assay: blockers of cytochrome P450 2C19 activity – biochemical, luminescence, ADME assay, primary screen (AID 778)
Details: CYP2C19 Supersomes, luciferin-H EGE luminescence, 30 min; at 5 µM
Hit rate of the full screen: of about 96,000 compounds, about 20,000 (21%) were called active.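 How the source made its calls: active means CYP2C19 inhibition above a set limit at 5 µM in the primary screen (cut at about 50% in these data); inactive means the rest.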 The list is a sample of the results.
Labels: active, inactive

| COMPOUND | ASSIGNED CLASS |
| --- | --- |
| Cc1nc(N2CCCC2C(=O)O)c2oc3ccccc3c2n1 (stereo unspecified) | inactive |
| COc1ccc(NC(=O)c2sccc2SCC#N)cc1 | inactive |
| CC1=C(C(=O)Nc2ccccc2)C(c2cccs2)C(C#N)=C(SCC#N)N1 (stereo unspecified) | active |
| COc1cc(C(=O)Nc2oc(-c3ccccc3)c(-c3ccccc3)c2C#N)cc(OC)c1OC | inactive |
| CCOC(=O)c1c(NC(=O)CSc2nnc(Cc3csc(N)n3)n2C)sc(C)c1C | inactive |
| N#Cc1c(/N=C/N2CCCC2)oc(-c2ccccc2)c1-c1ccccc1 | inactive |
| O=C(CN1CCOCC1)Nc1c2c(nc3c1CCC3)CCC2 | inactive |
| CC(NC(=O)c1cc(-c2ccccc2)on1)c1ccccc1 (stereo unspecified) | inactive |
| Cc1ccc(-c2nnc(-n3nnc4ccccc43)c3ccccc23)cc1 | inactive |
| CC(N=Cc1nc(-c2ccccc2)oc1O)c1ccccc1 (stereo unspecified) | active |
| CCC(=O)N(C)C(c1ccccc1Cl)c1nnnn1-c1c(C)cccc1C (stereo unspecified) | inactive |
